test system: HIV-1 integrase (with human LEDGF/p75); assay: blockers of LEDGF/p75-dependent integrase strand transfer – biochemical, TR-FRET, high throughput, primary screen (AID 743269); settings: TR-FRET IN-LEDGF/p75 DNA integration, Eu/Cy5; at 3.7 µM; stronger effect = higher value;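 note: signal is the Cy5 over europium emission ratio at 671 and 618 nm; 0% = plate median of compound wells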
The campaign covered roughly 370,000 compounds. About 2,400 (0.65%) were called active. The sample as a whole holds a higher share of actives than the screen did.
Outcome label depends on inhibition relative to 40%: at/above gives 1, below gives -1.

These solved cases illustrate the format of a correct answer.
[[record]]
molecule = "Cc1cc(C)c2nc(-c3ccco3)cc(C(=O)O)c2c1"
answer_label = 1

[[record]]
molecule = "O=C(Nc1c(-c2ccccc2)nc2c(Br)cc(Br)cn12)c1ccco1"
answer_label = -1

[[record]]
molecule = "O=C(Nc1nc(-c2ccco2)c(-c2ccco2)s1)c1ccco1"
answer_label = 1

[[record]]
molecule = "CCCCOCCCNC(=O)C[C@H]1C[C@@]2(C(=O)OC)C(=C[C@H](COCc3ccccc3)O[C@@H]2C)N(Cc2cccc3ccccc23)C1=O"
answer_label = -1

[[record]]
molecule = "CC(=O)C1(C(=O)Nc2nccs2)CC(c2ccccc2C(F)(F)F)=NO1 (stereo unspecified)"
answer_label = -1


Continue with the next molecule.
Query string: Hi, just wondering whether `C=CCn1c(=S)[nH]c2scc(-c3ccco3)c2c1=O` shows inhibition of 40% or higher.
Result string: 1

* * *

system: HIV-1 integrase (with human LEDGF/p75); assay: blockers of LEDGF/p75-dependent integrase strand transfer – biochemical, TR-FRET, high throughput, primary screen (AID 743269); conditions: TR-FRET IN-LEDGF/p75 DNA integration, Eu/Cy5; at 3.7 µM; stronger effect = higher value;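 note: signal is the Cy5 over europium emission ratio at 671 and 618 nm; 0% = plate median of compound wells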
The campaign covered roughly 370,000 compounds. About 2,400 (0.65%) were called active. Only a selection was taken, and actives are over-represented in it overall.
Readout Name: inhibition (%)
The reply should be a number in %, with the unit left off.

[[record]]
molecule = "COC(=O)c1cc(OC)c(OC)cc1NC(=O)CSc1ccc(C)cc1"
measured = -3.23

[[record]]
molecule = "CCC(=O)Nc1ccc2c(c1)C(=O)N(C)[C@@H]1CC[C@@H](CC(=O)NCCc3ccccc3)O[C@H]1CO2"
measured = -2.65

[[record]]
molecule = "O=C(Nc1ccc(Br)cc1)OCCN1C(=O)CCC12CCC(c1ccccc1)CC2 (centres undefined)"
measured = -0.45


Then there is this molecule:
Query string: Give the measured inhibition for `Cc1c(C)c2c(OCC(=O)N[C@@H](C(=O)O)c3ccccc3)cc3c(c2oc1=O)CCC(C)(C)O3`
Result string: -4.85

* * *

Item-by-item account of inhibition
tested on: HIV-1 integrase (with human LEDGF/p75); assay: blockers of LEDGF/p75-dependent integrase strand transfer – biochemical, TR-FRET, high throughput, primary screen (AID 743269); conditions: TR-FRET IN-LEDGF/p75 DNA integration, Eu/Cy5; at 3.7 µM; stronger effect = higher value;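 note: signal is the Cy5 over europium emission ratio at 671 and 618 nm; 0% = plate median of compound wells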
Among all 370,000 compounds or so, about 2,400 (0.65%) were called active. The sample holds actives, similar compounds and a random draw of the others, so the mix is not that of the screen.
The reply should be a number in %, with the unit left off.

Worked examples, 9 molecules total:
[[record]]
molecule = "COc1cc(/C=C2\\CCCc3c2nc2ccccc2c3C(=O)O)cc(Cl)c1O"
unit_name = "%"
measured = 30.4

[[record]]
molecule = "Fc1ccc2nc(COCc3nc4ccc(F)cc4[nH]3)[nH]c2c1"
unit_name = "%"
measured = 0.7

[[record]]
molecule = "O=C(O)C(CCc1ccccn1)c1ccccc1 (stereo not given)"
unit_name = "%"
measured = 0.2

[[record]]
molecule = "Cc1cc(SCC(=O)NCCN2C(=O)CSC2=O)nc2ccccc12"
unit_name = "%"
measured = 24.8

[[record]]
molecule = "CCCC[C@H]1C2CC(OC(=O)NCc3ccccc3)C(C2)[C@H]2CCCCN21 (stereo not given in full)"
unit_name = "%"
measured = -3.96

[[record]]
molecule = "CCCC1CCC2(CCCN2CCOC(=O)NCc2ccccc2)CC1 (stereo not given)"
unit_name = "%"
measured = -0.38

[[record]]
molecule = "COc1ccc(Cn2cc(CN3CCS(=O)(=O)N(Cc4ccc(-c5cccc(Cl)c5)cc4)C(C)C3=O)nn2)cc1 (stereo not given)"
unit_name = "%"
measured = 79.8

[[record]]
molecule = "CCOC(=O)c1cccc(NC(=O)CN(C)S(=O)(=O)c2ccc(-c3cocn3)s2)c1"
unit_name = "%"
measured = 2.14

[[record]]
molecule = "CC(=O)NC(CC(=O)O)c1ccc(F)cc1 (stereo not given)"
unit_name = "%"
measured = -3.02


Then there is this molecule:
Query string: Give the measured inhibition for `Cc1ccc(-n2c(SCC(=O)Nc3ccc(S(=O)(=O)Nc4nccs4)cc3)nnc2-c2ccccn2)cc1`
Result string: -3.23
